# Tested system: VgEcR and RXR heterodimeric receptor (pVgRXR) with pIND/luc in CHO cells (Drosophila melanogaster, UniProt P34021, E282G/G283S/G286V)
# Construct: host or cells: CHO cells (ATCC CCL-61), transiently transfected or stably transformed with pVgRXR
# Sequence (P34021 1-878 E282G/G283S/G286V): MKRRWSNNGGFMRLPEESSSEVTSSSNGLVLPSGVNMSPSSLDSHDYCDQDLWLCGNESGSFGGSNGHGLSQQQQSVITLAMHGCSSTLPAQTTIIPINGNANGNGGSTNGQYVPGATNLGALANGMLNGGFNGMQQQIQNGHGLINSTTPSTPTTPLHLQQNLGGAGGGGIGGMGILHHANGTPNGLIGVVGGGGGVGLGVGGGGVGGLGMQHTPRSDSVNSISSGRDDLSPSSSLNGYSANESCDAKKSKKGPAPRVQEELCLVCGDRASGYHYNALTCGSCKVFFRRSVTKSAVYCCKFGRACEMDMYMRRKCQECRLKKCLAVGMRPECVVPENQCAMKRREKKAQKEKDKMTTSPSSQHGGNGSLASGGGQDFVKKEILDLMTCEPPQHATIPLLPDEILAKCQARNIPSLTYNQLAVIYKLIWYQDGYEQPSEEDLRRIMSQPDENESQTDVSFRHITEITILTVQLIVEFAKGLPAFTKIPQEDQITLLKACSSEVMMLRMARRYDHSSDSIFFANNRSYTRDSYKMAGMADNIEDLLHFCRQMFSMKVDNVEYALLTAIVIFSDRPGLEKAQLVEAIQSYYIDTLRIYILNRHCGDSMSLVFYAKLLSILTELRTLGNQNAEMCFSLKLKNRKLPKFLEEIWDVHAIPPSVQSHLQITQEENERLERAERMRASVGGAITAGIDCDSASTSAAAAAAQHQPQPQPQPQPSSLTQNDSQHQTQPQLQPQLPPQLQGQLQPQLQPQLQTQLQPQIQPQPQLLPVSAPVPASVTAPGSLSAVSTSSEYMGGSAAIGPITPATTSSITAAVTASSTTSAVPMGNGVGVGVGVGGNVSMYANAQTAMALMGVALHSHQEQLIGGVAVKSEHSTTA
# Sequence (P19793 1-462 partner): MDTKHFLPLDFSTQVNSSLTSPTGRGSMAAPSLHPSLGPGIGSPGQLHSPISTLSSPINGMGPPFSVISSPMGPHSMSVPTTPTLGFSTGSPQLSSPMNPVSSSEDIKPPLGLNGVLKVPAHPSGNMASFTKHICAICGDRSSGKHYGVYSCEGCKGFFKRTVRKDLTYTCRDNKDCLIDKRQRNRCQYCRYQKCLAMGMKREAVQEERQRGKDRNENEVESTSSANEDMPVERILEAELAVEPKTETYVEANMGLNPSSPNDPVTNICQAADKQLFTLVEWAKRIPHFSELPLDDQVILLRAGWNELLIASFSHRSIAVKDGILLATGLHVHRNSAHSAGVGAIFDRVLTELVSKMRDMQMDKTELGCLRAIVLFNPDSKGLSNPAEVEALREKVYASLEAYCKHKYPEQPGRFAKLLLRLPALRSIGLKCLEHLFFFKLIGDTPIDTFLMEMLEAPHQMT
# Assay text: Luciferase gene activation in transiently transfected CHO cells
# Assay type: cell-based
# Experimental parameters: ligand 10 μM, average of duplicate samples, no ligand = 42
// label = Criterion met if Luciferase activity is not less than 300 RLU, otherwise Criterion not met

Worked examples, 3 compounds total:
COc1cccc(C(=O)NN(C(=O)c2cc(C)cc(C)c2)C(C)(C)C)c1C ... Criterion met
CCc1c(OC)cccc1C(=O)NN(C(=O)c1cccc(OC)c1)C(C)(C)C ... Criterion not met
CCc1c(OC)cccc1C(=O)NN(C(=O)c1cc(C)cc(C)c1)C(C)(C)C ... Criterion met

Problem: Is Luciferase activity at least 300 RLU? Consider CC(C)CC[C@@H](O)[C@](C)(O)[C@H]1CC[C@@]2(O)C3=CC(=O)[C@]4(O)C[C@@H](O)[C@@H](O)C[C@]4(C)[C@H]3[C@H](O)C[C@]12C [CE-3, muristerone A, reference compound]
Solution: Criterion met

Problem: Hello, I need to know if CCc1c(OC)cccc1C(=O)NN(C(=O)c1cc(Cl)cc(Cl)c1)C(C)(C)C has measured Luciferase activity not below 300 RLU. Thanks!
Solution: Criterion not met

Problem: Luciferase activity >= 300 RLU for CCc1ccc(C(=O)NN(C(=O)c2cc(C)cc(C)c2)C(C)(C)C)cc1 [CE-1, reference compound] ?
Solution: Criterion not met
